Origin of the recorded values: patent US20230192701A1

Recorded solubility kinetic at 24 h by entry
experiment: Kinetic solubility assay; format: physicochemical; conditions: aqueous buffer, kinetic from dmso stock; PBS buffer pH 7.4, 1.0% DMSO, 24 h at RT

| compound | unit-info | solubility kinetic at 24 h |
| --- | --- | --- |
| COc1ccc(N2C(=O)N(c3c(CF)csc3Cl)Cc3cnc(Nc4ccc(C5CCN(C)CC5)cc4)nc32)nc1 | µM | 9.1 |
| COc1ccc(N2C(=O)N(c3c(C)csc3Cl)Cc3cnc(Nc4ccc(C5CCN(C)CC5)cc4OC)nc32)nc1 | µM | 6.9 |
| COc1ccc(N2C(=O)N(c3c(C(F)F)csc3Cl)Cc3cnc(Nc4ccc(C5CCN(C)CC5)cc4)nc32)nc1 | µM | 9.1 |
| COc1ccc(N2C(=O)N(c3c(C)cccc3Cl)Cc3cnc(Nc4ccc(C5CCN(C)CC5)cc4OC)nc32)nc1 [PY1, reference compound] | µM | 3.6 |

---

target: SIK2 (Homo sapiens, UniProt Q9H0K1); test: radiometric protein kinase assay (33PanQinase Activity Assay), SIK2; assay type: biochemical; conditions: ATP 1.0 μM, substrate RBER-CHKtide
Sequence (Q9H0K1 whole entry): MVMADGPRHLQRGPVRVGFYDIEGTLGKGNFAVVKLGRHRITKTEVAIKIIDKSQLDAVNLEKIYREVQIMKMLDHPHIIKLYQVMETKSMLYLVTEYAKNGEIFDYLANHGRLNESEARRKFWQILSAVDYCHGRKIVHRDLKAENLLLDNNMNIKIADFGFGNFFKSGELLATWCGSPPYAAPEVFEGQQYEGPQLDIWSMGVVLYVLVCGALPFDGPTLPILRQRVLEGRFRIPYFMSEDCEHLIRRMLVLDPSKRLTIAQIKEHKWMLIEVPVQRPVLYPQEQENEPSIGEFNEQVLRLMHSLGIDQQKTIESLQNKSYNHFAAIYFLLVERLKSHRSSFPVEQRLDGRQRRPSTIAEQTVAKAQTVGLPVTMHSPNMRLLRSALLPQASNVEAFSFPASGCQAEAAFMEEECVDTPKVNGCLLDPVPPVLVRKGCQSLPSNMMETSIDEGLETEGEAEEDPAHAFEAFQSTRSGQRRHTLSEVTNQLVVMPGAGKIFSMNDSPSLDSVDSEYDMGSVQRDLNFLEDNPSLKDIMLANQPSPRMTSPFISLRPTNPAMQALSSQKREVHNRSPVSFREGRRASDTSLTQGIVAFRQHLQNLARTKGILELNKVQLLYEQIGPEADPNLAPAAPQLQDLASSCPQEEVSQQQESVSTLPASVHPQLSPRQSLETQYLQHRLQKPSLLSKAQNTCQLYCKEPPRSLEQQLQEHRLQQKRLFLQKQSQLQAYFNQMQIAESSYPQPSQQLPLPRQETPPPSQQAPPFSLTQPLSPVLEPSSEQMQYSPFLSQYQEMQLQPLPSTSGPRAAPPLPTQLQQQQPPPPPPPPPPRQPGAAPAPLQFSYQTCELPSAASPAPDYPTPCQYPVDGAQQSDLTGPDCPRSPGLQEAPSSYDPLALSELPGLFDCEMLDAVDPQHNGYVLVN
Recorded IC50 by entry

| molecule | IC50 |
| --- | --- |
| COc1ccc(N2C(=O)N(c3c(C)noc3C)Cc3cnc(Nc4ccc(C5CCN(C)CC5)cc4OC)nc32)nc1 | 400 to 800 nM |
| COc1ccc(N2C(=O)N(c3c(CF)csc3Cl)Cc3cnc(Nc4ccc(C5CCN(C)C(C)C5)cc4)nc32)nc1 (stereo not drawn) | < 50 nM |
| COc1ccc(N2C(=O)N(c3c(CF)csc3Cl)Cc3cnc(Nc4ccc(N5CCN(C)CC5)cc4)nc32)nc1 | < 50 nM |
| COCCN1C(=O)N(c2c(CF)csc2Cl)Cc2cnc(Nc3ccc(C4CCN(C)CC4)cc3OC)nc21 | < 50 nM |
| COc1ccc(N2C(=O)N(c3c(CF)csc3Cl)Cc3cnc(Nc4ccc(C5CC(C)N(C)C(C)C5)cc4)nc32)nc1 (stereo not drawn) | < 50 nM |
| COc1ccc(N2C(=O)N(c3c(CF)csc3Cl)Cc3cnc(Nc4ccc(C5CCN(C)CC5)cc4)nc32)nc1 | < 50 nM |
| COc1ccc(N2C(=O)N(c3c(C(F)F)csc3Cl)Cc3cnc(Nc4ccc(C5CCN(C)CC5)cc4)nc32)nc1 | < 50 nM |
| COc1ccc(N2C(=O)N(c3c(C)nn(C)c3C)Cc3cnc(Nc4ccc(C5CCN(C)CC5)cc4OC)nc32)nc1 | 5000 to 10000 nM |
| COc1ccc(N2C(=O)N(c3c(C)csc3Cl)Cc3cnc(Nc4ccc(C5CCN(C)CC5)cc4OC)nc32)nc1 | 100 to 200 nM |
| COc1ccc(N2C(=O)N(c3c(C(F)F)csc3Cl)Cc3cnc(Nc4ccc(C5CCN(C)CC5)cc4OC)nc32)nc1 | 100 to 200 nM |
| COc1ccc(N2C(=O)N(c3c(CF)csc3Cl)Cc3cnc(Nc4ccc(C5CCN(C)CC5)cc4OC)nc32)nc1 | 50 to 100 nM |
| COc1ccc(N2C(=O)N(c3c(CF)csc3Cl)Cc3cnc(Nc4ccc(C5CCN(C)CC5)cc4OC)nc32)cc1 | 50 to 100 nM |

---

target: SIK3 (Homo sapiens, UniProt Q9Y2K2); test: radiometric protein kinase assay (33PanQinase Activity Assay), SIK3; format: biochemical; settings: ATP 1.0 μM, substrate RBER-CHKtide
Sequence (Q9Y2K2 whole entry): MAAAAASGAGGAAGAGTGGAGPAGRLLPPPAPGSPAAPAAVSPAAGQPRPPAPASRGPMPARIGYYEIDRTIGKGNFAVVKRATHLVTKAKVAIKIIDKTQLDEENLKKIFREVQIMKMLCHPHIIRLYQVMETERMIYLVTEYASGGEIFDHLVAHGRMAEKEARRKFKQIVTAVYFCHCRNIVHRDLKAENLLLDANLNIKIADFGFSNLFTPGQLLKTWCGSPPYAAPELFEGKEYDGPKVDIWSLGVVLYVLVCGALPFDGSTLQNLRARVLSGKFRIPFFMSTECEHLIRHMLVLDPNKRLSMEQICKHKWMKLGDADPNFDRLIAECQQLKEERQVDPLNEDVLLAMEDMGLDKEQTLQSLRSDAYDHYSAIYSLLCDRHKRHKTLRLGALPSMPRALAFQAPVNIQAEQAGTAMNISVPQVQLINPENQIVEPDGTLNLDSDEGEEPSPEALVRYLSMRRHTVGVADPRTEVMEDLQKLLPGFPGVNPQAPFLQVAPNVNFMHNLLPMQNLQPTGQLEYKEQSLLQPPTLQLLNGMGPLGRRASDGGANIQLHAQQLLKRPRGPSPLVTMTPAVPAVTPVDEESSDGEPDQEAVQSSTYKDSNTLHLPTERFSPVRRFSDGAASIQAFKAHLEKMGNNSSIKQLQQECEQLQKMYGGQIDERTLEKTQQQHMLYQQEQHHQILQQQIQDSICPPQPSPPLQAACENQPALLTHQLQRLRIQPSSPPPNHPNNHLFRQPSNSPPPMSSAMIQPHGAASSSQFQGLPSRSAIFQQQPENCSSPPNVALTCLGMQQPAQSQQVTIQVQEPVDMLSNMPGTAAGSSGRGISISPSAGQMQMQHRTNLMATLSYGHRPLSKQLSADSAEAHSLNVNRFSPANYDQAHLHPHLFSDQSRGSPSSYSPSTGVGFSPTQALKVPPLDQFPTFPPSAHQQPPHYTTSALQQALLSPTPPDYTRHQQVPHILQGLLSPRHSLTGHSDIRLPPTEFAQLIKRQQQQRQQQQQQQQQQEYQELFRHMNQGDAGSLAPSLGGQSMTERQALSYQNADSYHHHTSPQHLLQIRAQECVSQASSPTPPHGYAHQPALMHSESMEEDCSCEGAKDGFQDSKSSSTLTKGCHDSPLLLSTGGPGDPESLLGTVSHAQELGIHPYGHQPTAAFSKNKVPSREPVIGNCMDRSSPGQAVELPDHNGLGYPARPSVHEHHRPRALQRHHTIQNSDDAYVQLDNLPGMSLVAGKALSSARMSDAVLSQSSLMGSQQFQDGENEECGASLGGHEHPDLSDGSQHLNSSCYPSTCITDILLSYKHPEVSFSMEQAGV

| compound | IC50 |
| --- | --- |
| COCCN1C(=O)N(c2c(CF)csc2Cl)Cc2cnc(Nc3ccc(C4CCN(C)CC4)cc3OC)nc21 [AA12] | < 50 nM |
| COc1ccc(N2C(=O)N(c3c(CF)csc3Cl)Cc3cnc(Nc4ccc(C5CCN(C)CC5)cc4OC)nc32)cc1 [AA10] | 100 to 200 nM |
| COc1ccc(N2C(=O)N(c3c(CF)csc3Cl)Cc3cnc(Nc4ccc(C5CCN(C)CC5)cc4)nc32)nc1 [AA3] | < 50 nM |
| COc1ccc(N2C(=O)N(c3c(C(F)F)csc3Cl)Cc3cnc(Nc4ccc(C5CCN(C)CC5)cc4)nc32)nc1 [AA2] | < 50 nM |
| COc1ccc(N2C(=O)N(c3c(C)noc3C)Cc3cnc(Nc4ccc(C5CCN(C)CC5)cc4OC)nc32)nc1 [AA5] | 800 to 1000 nM |
